Origin of the recorded values: patent US9895324B2

Listing of entries alongside the reported melting point.

molSmiles	melting point
CN(C)c1ccc(C#Cc2ccccc2)cc1	104 to 106 °C

stdin: Give the measured melting point for "CN(C)c1ccc(C#Cc2ccccc2F)cc1"
stdout: 94 to 96 °C

stdin: Give the measured melting point for "CN(C)c1ccc(C#Cc2cccc(F)c2F)cc1"
stdout: 104 to 106 °C

stdin: Give the measured melting point for "CN(C)c1ccc(C#Cc2c(F)cccc2Cl)cc1"
stdout: 86 to 88 °C

stdin: Give the measured melting point for "CN(C)c1ccc(C#Cc2ccc(F)cc2)cc1"
stdout: 132 to 134 °C

stdin: Give the measured melting point for "CN(C)c1ccc(C#Cc2ccc(F)cc2F)cc1"
stdout: 116 to 118 °C

stdin: Give the measured melting point for "CNc1ccc(C#Cc2c(F)cccc2F)cc1"
stdout: 69 to 70 °C

stdin: Give the measured melting point for "Nc1ccc(C#Cc2c(F)cccc2F)cc1"
stdout: 104 to 105 °C

stdin: Give the measured melting point for "CN(C)c1ccc(C#Cc2cc(F)cc(F)c2)cc1"
stdout: 72 to 74 °C

stdin: Give the measured melting point for "CN(C)c1ccc(C#Cc2ccccc2Cl)cc1"
stdout: 108 to 110 °C

stdin: Give the measured melting point for "CN(C)c1ccc(C#Cc2cc(F)ccc2F)cc1"
stdout: 106 to 107 °C

stdin: Give the measured melting point for "CN(C)c1ccc(C#Cc2cccc(F)c2)cc1"
stdout: 99 to 100 °C

stdin: Give the measured melting point for "CN(C)c1ccc(C#Cc2c(Cl)cccc2Cl)cc1"
stdout: 96 to 98 °C

stdin: Give the measured melting point for "CN(C)c1ccc(C#Cc2ccc(F)c(F)c2)cc1"
stdout: 100 to 101 °C
